- System: SF-539 CNS
- run_description: NCI tumour cell line growth inhibition, 48 h
observation_type: TGI (µM)
Give the value in µM but do not write µM after it.

# annotated cases, reported TGI shown
compound: CC1CCC2(C)C(CC=C(C=O)C2(O)C=O)C12CO2 (centres undefined)
readout_units: µM
TGI: 4.52

compound: CC(=O)N(O)c1ccc(/C=C/c2ccccc2)cc1
readout_units: µM
TGI: 35.1

compound: C=CC[N+]1(CC)CCN=C1CCCCCCCCCCCCCCCCC (centres undefined)
readout_units: µM
TGI: 2.05

compound: COc1cc(-c2ncn(/C=C\c3nnco3)n2)cc(C(F)(F)F)c1
readout_units: µM
TGI: 0.581

Report the value of TGI obtained on SF-539 CNS for "c1ccc2c(CNCCN3CCNCC3)c3ccccc3c(CNCCN3CCNCC3)c2c1" .
37

Report the value of TGI obtained on SF-539 CNS for "COc1ccc(-c2c3c(N)c4c(nc3nc3c2c(C)nn3-c2ccccc2)CCCC4)cc1" .
29.2

----------
- System: IGROV1 ovarian
- run_description: NCI tumour cell line growth inhibition, 48 h
observation_type: TGI (µM)
Give the value in µM but do not write µM after it.

# annotated cases, reported TGI shown
molecule: CCOC(=O)/C=C\C(C#N)(C#N)N=Cc1ccsc1
readout_units: µM
TGI: 28.2
--
molecule: Clc1nc(Cl)c2ncn(CCOCCn3cnc4c(Cl)nc(Cl)nc43)c2n1
readout_units: µM
TGI: 0.408
--
molecule: O=C(NCCCCCCCN1CCCCCCC1)C(C1CCCCC1)C1CCCCC1
readout_units: µM
TGI: 27.3

Please look at this molecule and report its TGI: Cc1ccc(C2=Nc3ccccc3SC(c3cccc4c3OCO4)C2)cc1 (stereo not drawn)
42.4

Please look at this molecule and report its TGI: C=C1C=CC2(Br)OC3CC(C)(Cl)C(Br)CC13C2(C)C (stereo not drawn)
92.7

----------
# TGI per record follows
- System: XF 498 CNS
- run_description: NCI tumour cell line growth inhibition, 48 h

compound: C/C(N=NS(=O)(=O)c1ccc(C)cc1)=C1\C=CC=CN1O
study_target: XF 498 CNS
TGI: > 100 µM

compound: c1ccc2cc3c(cc2c1)OP1(Oc2cccc4cccnc24)(O3)Oc2cc3ccccc3cc2O1
study_target: XF 498 CNS
TGI: 9.98 µM

compound: CC(C)N(C(=O)C12C3C4C1C1C2C3C41C(=O)N(C(C)C)C(C)C)C(C)C (stereo not given)
study_target: XF 498 CNS
TGI: > 50 µM

compound: O=C(N/N=C(\C1=Nc2ccc(Cl)cc2NC1O)C(O)/C=C/c1ccccc1)c1ccncc1 (stereo not given)
study_target: XF 498 CNS
TGI: > 100 µM

compound: N#CNC1=NC(N)C(c2nc3ccccc3[nH]2)=C(CCCC(=O)Nc2cccc([N+](=O)[O-])c2)N1 (stereo not given)
study_target: XF 498 CNS
TGI: > 100 µM

Report the value of TGI obtained on XF 498 CNS for CC(C)OC(=O)C1Cc2c([nH]c3ccccc23)C(c2ccccc2)N1 (stereo not given) .
> 100 µM

Report the value of TGI obtained on XF 498 CNS for CCc1ccccc1NC(=O)CC1NC(=O)CS1 (stereo not given) .
> 100 µM

----------
# log10(TGI) per record follows
- Test system: HOP-62 NSCLC
- run_description: NCI tumour cell line growth inhibition, 48 h
Would you kindly interpret these values as log10 of TGI expressed in µM?

# annotated cases, reported log10(TGI) shown
compound: O=c1ccc2ccccc2c2ccccc12
log10(TGI): 1.05
--
compound: COC1=C2CC(C)CC(OC)C(OC(=O)CCCN)C(C)/C=C(\C)C(OC(N)=O)C(OC)/C=C\C=C(/C)C(=O)NC(=CC1=O)C2=O (centres undefined)
log10(TGI): 1.51
--
compound: O=C1CSC(c2ccccc2O)N1c1ccc(Oc2ccc(Cl)cc2)c(Cl)c1 (centres undefined)
log10(TGI): 1.63
--
compound: O=C1c2ccccc2C(=O)c2c1cc1c(c2[N+](=O)[O-])OCO1
log10(TGI): 0.72
--
compound: CCn1ccnc1C(=O)/C=C/c1ccc(CC(=O)Nc2ccc(F)cc2)cc1
log10(TGI): 1.00
--
compound: O=C1/C(=C/c2ccccc2O)N=C(c2ccccc2)N1c1cc(C(F)(F)F)ccc1Cl
log10(TGI): 1.48

Please look at this compound and report its log10(TGI): "CC1CCN(CCOc2ccc(CNc3ccc4nc(CCC5CCCCC5)[nH]c4c3)cc2)CC1"
0.51

Please look at this compound and report its log10(TGI): "COC(=O)c1cc([N+](=O)[O-])cc([N+](=O)[O-])c1Cl"
0.91

----------
# TGI per record follows
- System: COLO 205 colon
- run_description: NCI tumour cell line growth inhibition, 48 h
Give the value in µM but do not write µM after it.

# annotated cases, reported TGI shown
compound: O=C1/C(=C/c2cccs2)NC(=S)N1CN1CCCCC1
study_target: COLO 205 colon
readout_units: µM
reported_value: 47.3
//
compound: CC(C)=CC(=O)OC1C2C(C)=CC(O)C(O)C2(C)C2C3(O)OCC24C(CC(=O)OC14)C(C)C3O (stereo not given)
study_target: COLO 205 colon
readout_units: µM
reported_value: 2.77

Report the value of TGI obtained on COLO 205 colon for "C/C(=N\NC(=S)Nc1ccc([N+](=O)[O-])cc1)c1nc2ncccc2[nH]1" .
23.1

Report the value of TGI obtained on COLO 205 colon for COc1c(CC=C(C)C)c(O)c(C(CC(C)C)c2c(O)c(CC=C(C)C)c(O)c(C(C)=O)c2O)c(O)c1C(C)=O (stereo not given) .
4.7

Report the value of TGI obtained on COLO 205 colon for CC(C)=CCC/C(C)=C/CCC1(C)C=Cc2c(c3ccccc3oc2=O)O1 (stereo not given) .
35.5

----------
- System: A549 NSCLC
- run_description: NCI tumour cell line growth inhibition, 48 h
# TGI per record follows
Give the value in µM but do not write µM after it.

# annotated cases, reported TGI shown
compound: CSC(=N)N1N=C2/C(=C/c3ccccc3)CCC[C@H]2[C@H]1c1ccccc1
TGI (µM): 16.3
//
compound: CCC(=O)C(CCN1CCC(N2C(=O)C(CCC#N)c3ccccc32)CC1)(c1ccccc1)c1ccccc1 (stereo not drawn)
TGI (µM): 31.7
//
compound: COc1ccc(OC)c(Cc2cnc3nc(N)nc(N)c3c2C)c1
TGI (µM): 36.9

Please look at this compound and report its TGI: "CC(=O)N(O)c1ccc(/C=C/c2ccccc2)cc1"
15.5

Please look at this compound and report its TGI: "COc1ccc2c(c1)C(=O)c1c-2c(=O)n(CCCN(C)C)c2cc(OC)c(OC)cc12"
22

Please look at this compound and report its TGI: "Clc1nc(Cl)c2ncn(CCOCCn3cnc4c(Cl)nc(Cl)nc43)c2n1"
1.3

Please look at this compound and report its TGI: Cc1nnc(N/N=C(/C(=O)C(C#N)c2ccc(Cl)cc2)C(C#N)c2ccc(Cl)cc2)n1N (stereo not drawn)
43.9

Please look at this compound and report its TGI: "C/C(=N\NC(=S)Nc1ccc([N+](=O)[O-])cc1)c1nc2ncccc2[nH]1"
19.1

Please look at this compound and report its TGI: "O=[N+]([O-])c1cc(Cc2cc([N+](=O)[O-])c3cccnc3c2O)c(O)c2ncccc12"
30.8

Please look at this compound and report its TGI: CC1CCC2(C)C(CC=C(C=O)C2(O)C=O)C12CO2 (stereo not drawn)
26.4

Please look at this compound and report its TGI: "O=C1/C(=C/c2ccccc2[N+](=O)[O-])COc2ccc(O)cc21"
19.4

----------
- System: LOX IMVI melanoma
- run_description: NCI tumour cell line growth inhibition, 48 h
observation_type: GI50

# annotated cases, reported GI50 shown
molecule: O=S(=O)(O)c1ccc2cc3nn(-c4ccc(/C=C/c5ccc(-n6nc7cc8ccc(S(=O)(=O)O)cc8cc7n6)cc5S(=O)(=O)O)c(S(=O)(=O)O)c4)nc3cc2c1
GI50: 16300 nM

molecule: COc1ccc(C2CC(c3ccc(N(C)C)cc3)=NN2c2ccc(S(N)(=O)=O)cc2)cc1 (stereo not given)
GI50: 1870 nM

Please look at this molecule and report its GI50: "COc1cc(-c2ncn(/C=C\c3nnco3)n2)cc(C(F)(F)F)c1"
90.6 nM

Please look at this molecule and report its GI50: "COc1ccc2nc3cc(Cl)ccc3c(N3CCN(c4ccnc(N5CCN(C)CC5)n4)CC3)c2c1"
1890 nM

Please look at this molecule and report its GI50: "O=C1/C(=C/c2ccccc2O)N=C(c2ccccc2)N1c1cc(C(F)(F)F)ccc1Cl"
40800 nM

Please look at this molecule and report its GI50: "COc1ccc(-c2[nH]c3ccccc3c2/C=C(\C#N)S(=O)(=O)c2ccccc2)cc1"
1230 nM

Please look at this molecule and report its GI50: "O=C1C(Nc2cccc(O)c2)=C(Sc2ccccc2)C(=O)N1Cc1ccccc1"
13000 nM

Please look at this molecule and report its GI50: "C=C1C(=O)O[C@H]2[C@H]1CC/C(COC(=O)NCc1c[nH]c3ccc(F)cc13)=C\CC[C@@]1(C)O[C@@H]21"
952 nM

Please look at this molecule and report its GI50: "C=CC(=O)N[C@@H](/C=C/C(=O)OCC)Cc1ccc(-c2cc(Cl)cc(Cl)c2)cc1"
14200 nM

Please look at this molecule and report its GI50: "Clc1nc(Cl)c2ncn(CCOCCn3cnc4c(Cl)nc(Cl)nc43)c2n1"
185 nM

Please look at this molecule and report its GI50: "COC1=C(OC)C(=O)C(CCCCCCCCCCO)=C(C)C1=O"
964 nM

Please look at this molecule and report its GI50: "Cc1ccc(-n2c(-c3cc4c([nH]c5ccccc54)c(-c4cccc(O)c4)n3)n[nH]c2=S)cc1"
461 nM

Please look at this molecule and report its GI50: "C/C(=N\NC(=S)N1CCN(c2ccccn2)CC1)c1ncccn1"
< 18.3 nM

Please look at this molecule and report its GI50: "O=C1c2ccccc2C(=O)c2c1cc1c(c2[N+](=O)[O-])OCO1"
1430 nM

Please look at this molecule and report its GI50: "CCn1ccnc1C(=O)/C=C/c1ccc(CC(=O)Nc2ccc(F)cc2)cc1"
561 nM
